Data credit: paper PMC4694998

TARGET_OF_ASSAY: UniProt P79208
Sequence (P79208 17-603): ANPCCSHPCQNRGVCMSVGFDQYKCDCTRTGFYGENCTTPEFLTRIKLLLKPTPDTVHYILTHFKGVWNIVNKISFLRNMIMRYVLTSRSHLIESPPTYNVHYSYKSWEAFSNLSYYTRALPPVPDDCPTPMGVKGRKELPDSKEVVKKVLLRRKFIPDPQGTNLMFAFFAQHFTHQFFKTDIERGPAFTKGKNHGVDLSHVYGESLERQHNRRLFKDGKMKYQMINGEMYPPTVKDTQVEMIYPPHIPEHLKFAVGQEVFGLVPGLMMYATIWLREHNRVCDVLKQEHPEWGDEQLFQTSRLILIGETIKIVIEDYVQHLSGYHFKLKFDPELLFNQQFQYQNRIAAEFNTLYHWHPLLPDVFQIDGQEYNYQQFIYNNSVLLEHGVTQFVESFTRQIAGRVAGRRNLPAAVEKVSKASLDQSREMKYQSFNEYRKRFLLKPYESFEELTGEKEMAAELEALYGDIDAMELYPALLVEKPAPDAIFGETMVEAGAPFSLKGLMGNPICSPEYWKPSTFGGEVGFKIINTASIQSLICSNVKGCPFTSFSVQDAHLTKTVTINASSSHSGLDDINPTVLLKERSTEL
MEASURED_ENDPOINT: IC50 (µM)
Answers are plain numbers, in µM.

Record COc1ccc2c(c1)C(CC(=O)NCc1ccco1)=C(C)/C2=C/c1cc(OC)c(OC)c(OC)c1 [ADT-094] , field IC50: 145

----------
Consider the following compounds; for each one, report its IC50.
TARGET_OF_ASSAY: PDE10 (Homo sapiens, UniProt Q9Y233)
Sequence (Q9Y233 267-1055): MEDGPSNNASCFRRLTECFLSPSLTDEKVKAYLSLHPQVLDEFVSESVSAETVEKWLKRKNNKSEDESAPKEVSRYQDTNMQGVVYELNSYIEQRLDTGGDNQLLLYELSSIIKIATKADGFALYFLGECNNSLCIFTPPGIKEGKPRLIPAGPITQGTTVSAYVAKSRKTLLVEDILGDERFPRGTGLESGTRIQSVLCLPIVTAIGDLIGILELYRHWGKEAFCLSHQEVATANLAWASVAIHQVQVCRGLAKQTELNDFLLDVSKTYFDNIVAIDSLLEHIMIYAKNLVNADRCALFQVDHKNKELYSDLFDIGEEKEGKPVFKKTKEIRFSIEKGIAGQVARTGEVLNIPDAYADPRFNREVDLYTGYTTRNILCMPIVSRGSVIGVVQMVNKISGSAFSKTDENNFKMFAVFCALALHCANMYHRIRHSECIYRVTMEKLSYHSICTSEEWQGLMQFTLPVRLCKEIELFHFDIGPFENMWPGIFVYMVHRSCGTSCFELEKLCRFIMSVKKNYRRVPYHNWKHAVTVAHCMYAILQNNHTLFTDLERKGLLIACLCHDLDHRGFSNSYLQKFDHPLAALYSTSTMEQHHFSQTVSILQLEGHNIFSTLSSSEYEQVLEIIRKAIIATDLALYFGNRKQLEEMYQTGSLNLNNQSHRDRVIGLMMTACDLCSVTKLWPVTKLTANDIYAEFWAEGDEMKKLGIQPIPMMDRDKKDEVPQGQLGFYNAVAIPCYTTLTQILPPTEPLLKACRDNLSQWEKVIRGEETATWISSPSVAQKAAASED
EXPERIMENT_SUMMARY: IMAP fluorescence polarization PDE assay, recombinant PDE10
PROTOCOL_CONDITIONS: recombinant enzyme
Give bare numbers, in µM.

Give IC50 for each of the items listed below.
1. CSc1ccc(/C=C2/C(C)=C(CC(=O)O)c3cc(F)ccc32)cc1 [SS, Sulindac sulfide, reference compound]
2. COc1ccc2c(c1)C(CC(=O)NCc1ccco1)=C(C)/C2=C/c1cc(OC)c(OC)c(OC)c1

[70, 0.5]

----------
TARGET_OF_ASSAY: purified ovine COX-1 (Ovis aries)
Construct: purchased Cayman
Sequence (P05979 25-600): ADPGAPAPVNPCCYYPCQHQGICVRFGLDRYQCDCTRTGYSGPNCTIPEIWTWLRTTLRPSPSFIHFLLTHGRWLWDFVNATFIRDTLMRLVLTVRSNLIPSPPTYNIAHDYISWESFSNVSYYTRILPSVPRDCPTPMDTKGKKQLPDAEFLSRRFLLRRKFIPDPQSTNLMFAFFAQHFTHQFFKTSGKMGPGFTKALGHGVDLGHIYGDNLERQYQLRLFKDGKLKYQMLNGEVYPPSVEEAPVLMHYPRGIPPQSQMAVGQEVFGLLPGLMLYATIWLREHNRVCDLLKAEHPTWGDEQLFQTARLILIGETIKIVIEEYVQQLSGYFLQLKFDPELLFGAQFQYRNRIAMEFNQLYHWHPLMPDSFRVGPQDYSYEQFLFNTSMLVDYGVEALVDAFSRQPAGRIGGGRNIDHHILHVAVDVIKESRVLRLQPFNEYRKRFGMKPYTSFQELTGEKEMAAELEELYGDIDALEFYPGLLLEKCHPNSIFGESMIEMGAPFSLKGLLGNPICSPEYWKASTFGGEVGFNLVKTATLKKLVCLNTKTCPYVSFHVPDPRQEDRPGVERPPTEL
EXPERIMENT_SUMMARY: COX-1 colorimetric assay
Format: biochemical
MEASURED_ENDPOINT: IC50 (nM)
One number for each entry, in nM.

Result for CSc1ccc(/C=C2/C(C)=C(CC(=O)O)c3cc(F)ccc32)cc1 [SS, Sulindac sulfide, reference compound] , tested on purified ovine COX-1 (Ovis aries), IC50: 1200
